molecular target: delta opioid receptor (Mus musculus, UniProt P32300); construct: NG108-15 cell membranes were purchased from Applied Cell Sciences (Rockville, Md.); host or cells: NG108-15 cell membranes; assay: [35S]GTPγS binding assay in NG108-15 cell membranes (delta opioid functional assay), 200 nM screen; assay type: biochemical; conditions: GTPγS δ-opioid receptor EC50 (μM), NG108-15 cell membranes; averages if tested more than once
Sequence (P32300 whole entry): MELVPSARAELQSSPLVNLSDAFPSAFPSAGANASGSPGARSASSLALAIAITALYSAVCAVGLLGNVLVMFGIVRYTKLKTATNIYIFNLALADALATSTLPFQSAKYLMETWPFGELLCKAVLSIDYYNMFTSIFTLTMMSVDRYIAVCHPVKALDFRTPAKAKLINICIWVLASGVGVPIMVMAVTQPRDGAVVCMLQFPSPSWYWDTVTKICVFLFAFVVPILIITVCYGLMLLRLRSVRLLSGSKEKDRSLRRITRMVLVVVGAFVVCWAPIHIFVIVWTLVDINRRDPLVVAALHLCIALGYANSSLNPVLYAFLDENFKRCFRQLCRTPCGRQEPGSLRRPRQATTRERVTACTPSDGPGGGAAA
The compounds listed here are annotated with their EC50.

COMPOUND | TARGET_UNDER_TEST | EC50 / µM
COc1ccc(Oc2nc(-c3cncc(C)c3)ncc2N[C@@H]2CCCNC2)cc1 [Cpd 258] | delta opioid receptor (Mus musculus, UniProt P32300) | 0.075
COc1ccc(Oc2nc(-c3cccnc3)ncc2NC2CCCC(N)C2)cc1 (single isomer, unassigned) [Cpd 307] | delta opioid receptor (Mus musculus, UniProt P32300) | 0.011
COc1ccc(Oc2nc(-c3cncc(SC)c3)ncc2N[C@H]2CCCNC2)cc1 [Cpd 252] | delta opioid receptor (Mus musculus, UniProt P32300) | 0.025
COc1ccc(Oc2nc(-c3cnc(Cl)c(C)c3)ncc2NC[C@@H]2CCCN2)cc1 [Cpd 266] | delta opioid receptor (Mus musculus, UniProt P32300) | 0.018
CCOc1ccc(Oc2nc(-c3cncc(F)c3)ncc2NC[C@@H]2CCCN2)cc1 [Cpd 106] | delta opioid receptor (Mus musculus, UniProt P32300) | 0.027
COc1ccc(Oc2nc(-c3cncc(F)c3)ncc2NC[C@@H]2C[C@@H](F)CN2)cc1 [Cpd 193] | delta opioid receptor (Mus musculus, UniProt P32300) | 0.032
CC[C@@H]1CN(c2cnc(-c3cncc(OC)c3)nc2Oc2ccc(OC)cc2)CCN1 [Cpd 361] | delta opioid receptor (Mus musculus, UniProt P32300) | 0.07
CSc1ccc(Oc2nc(-c3cncc(C#N)c3)ncc2NC[C@@H]2CCCN2)cc1 [Cpd 150] | delta opioid receptor (Mus musculus, UniProt P32300) | 0.033

----------
molecular target: delta opioid receptor (Mus musculus); construct: NG108-15 cell membranes were purchased from Applied Cell Sciences (Rockville, Md.); host or cells: NG108-15 cell membranes; test: [35S]GTPγS binding assay in NG108-15 cell membranes (delta opioid functional assay), 200 nM screen; assay type: biochemical; details: read-out: GTPγS δ-opioid receptor % Inh @10 μM
The molecules listed here are annotated with their inhibition at 10 µM.
MEASUREMENT_KIND: inhibition at 10 µM (%)

CHEM_SMILES | ENDPOINT_VALUE
COc1ccc(Oc2nc(-c3ccc(N)nc3)ncc2NC[C@@H]2CCCN2)cc1 | 15.2
COc1ccc(-c2ncc(NC[C@@H]3CCCN3)c(Oc3ccc(O)cc3)n2)cn1 | 1.48
COc1ccc(Oc2nc(-c3ccccc3)ncc2NC[C@@H]2CCCN2)cc1 | 5.79
COc1ccc(Oc2nc(-c3ccc(O)nc3)ncc2NC[C@@H]2CCCN2)cc1 | 2.37
COc1ccc(Oc2nc(-c3ccncc3)ncc2NC[C@@H]2CCCN2)cc1 | 17.1

----------
target: delta opioid receptor (Rattus norvegicus, UniProt P33533); construct: the forebrains were homogenized in Tris buffer in a Teflon®-glass homogenizer; from tissue; host or cells: forebrain of male Wistar rats, particulate (membrane) preparation; experiment: Rat brain delta opioid receptor binding assay; conditions: rat forebrain, [3H]naltrindole ligand; read-out: δ-binding (Naltrindole ligand) Ki
Sequence (P33533 whole entry): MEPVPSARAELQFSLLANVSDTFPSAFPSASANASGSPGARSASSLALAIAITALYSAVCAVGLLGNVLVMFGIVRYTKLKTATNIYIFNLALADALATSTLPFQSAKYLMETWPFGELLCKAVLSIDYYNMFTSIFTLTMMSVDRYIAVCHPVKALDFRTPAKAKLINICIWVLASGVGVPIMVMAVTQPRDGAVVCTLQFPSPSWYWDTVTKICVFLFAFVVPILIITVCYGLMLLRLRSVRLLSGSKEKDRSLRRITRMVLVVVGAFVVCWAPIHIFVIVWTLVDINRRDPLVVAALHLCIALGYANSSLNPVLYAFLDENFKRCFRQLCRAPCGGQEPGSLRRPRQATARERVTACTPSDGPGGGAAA

MOLECULE | MEASUREMENT_UNITS | Ki
CCCCOc1ccc(Oc2nc(-c3cncnc3)ncc2NC[C@@H]2CCCN2)cc1 | nM | 565
COc1ccc(Oc2nc(-c3cncc(F)c3)ncc2NCC2CNCCO2)cc1 (stereo not drawn) | nM | 227
COc1ccc(Oc2nc(-c3cnc(N)nc3)ncc2NC[C@@H]2CCCN2)cc1 | nM | 355
COc1ccc(Oc2nc(-c3cc(Cl)cc(Cl)c3)ncc2NC[C@@H]2CCCN2)cc1 | nM | 143
COc1ccc(Oc2nc(-c3cccc4nc(C)ccc34)ncc2NC[C@@H]2CCCN2)cc1 | nM | 172
COc1ccc(Oc2nc(-c3cc4ccccc4s3)ncc2NC[C@@H]2CCCN2)cc1 | nM | 103
COc1ccc(-c2ncc(NC[C@@H]3CCCN3)c(Oc3ccc(O)cc3)n2)cn1 | nM | 0.954
COc1ccc(Oc2nc(-c3ccc4nccnc4c3)ncc2NC[C@@H]2CCCN2)cc1 | nM | 111
COc1ccc(Oc2nc(-c3cccc4[nH]ccc34)ncc2NC[C@@H]2CCCN2)cc1 | nM | 157

----------
The compounds listed here are annotated with their inhibition at 10 µM.
target: hMOR (mu opioid receptor) (Homo sapiens, UniProt P35372); assay: [35S]GTPγS binding assays in CHO-hMOR cell membranes (mu opioid functional assay); format: biochemical; settings: read-out: GTPγS μ-opioid receptor % Inh @10 μM
Sequence (P35372 whole entry, looked up): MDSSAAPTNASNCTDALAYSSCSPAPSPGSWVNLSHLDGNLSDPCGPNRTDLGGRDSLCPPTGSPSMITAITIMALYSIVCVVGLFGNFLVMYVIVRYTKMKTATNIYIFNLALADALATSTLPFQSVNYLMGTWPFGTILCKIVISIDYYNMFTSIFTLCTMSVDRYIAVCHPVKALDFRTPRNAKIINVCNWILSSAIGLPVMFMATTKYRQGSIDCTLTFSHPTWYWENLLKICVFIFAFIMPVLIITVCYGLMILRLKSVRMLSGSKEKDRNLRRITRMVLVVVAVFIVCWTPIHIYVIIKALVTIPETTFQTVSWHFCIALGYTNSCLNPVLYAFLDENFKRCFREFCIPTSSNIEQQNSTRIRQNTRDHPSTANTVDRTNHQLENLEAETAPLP

COMPOUND | TARGET_UNDER_TEST | inhibition at 10 µM (%)
COc1ccc(Oc2nc(-c3cncc(C#N)c3)ncc2N2CCNC(C)C2)cc1 (racemic) | hMOR (mu opioid receptor) (Homo sapiens, UniProt P35372) | 7.29
COc1ccc(Oc2nc(-c3cncc(C#N)c3)ncc2NC[C@@H]2CCCN2)cc1F | hMOR (mu opioid receptor) (Homo sapiens, UniProt P35372) | 9.4
COc1ccc(Oc2nc(-c3cncc(SC)c3)ncc2N[C@H]2CCCNC2)cc1 | hMOR (mu opioid receptor) (Homo sapiens, UniProt P35372) | 2.48
COc1ccc(Oc2nc(-c3cncc(SC)c3)ncc2N[C@H]2CCNC2)cc1 | hMOR (mu opioid receptor) (Homo sapiens, UniProt P35372) | 17.1
COc1ccc(Oc2nc(-c3cccnc3)ncc2N2CCNCC2)cc1 | hMOR (mu opioid receptor) (Homo sapiens, UniProt P35372) | 4.26
COc1ccc(Oc2nc(-c3cncc(SC)c3)ncc2NC[C@@H]2CCCN2)cc1 | hMOR (mu opioid receptor) (Homo sapiens, UniProt P35372) | 4.05
COc1ccc(Oc2nc(-c3cncc(C#N)c3)ncc2NC[C@@H]2C[C@@H](F)CN2)cc1 | hMOR (mu opioid receptor) (Homo sapiens, UniProt P35372) | 1
COc1ccc(Oc2nc(-c3cncc(OC)c3)ncc2N2CC[C@@H](N)C2)cc1 | hMOR (mu opioid receptor) (Homo sapiens, UniProt P35372) | 0
COc1ccc(Oc2nc(-c3cccnc3)ncc2N[C@H]2CCCNC2)cc1 | hMOR (mu opioid receptor) (Homo sapiens, UniProt P35372) | 6.2
COc1ccc(Oc2nc(-c3cncc(OC)c3)ncc2N[C@H]2CCNC2)cc1 | hMOR (mu opioid receptor) (Homo sapiens, UniProt P35372) | 6.2
COc1ccc(Oc2nc(-c3cccnc3)ncc2N2CCN[C@H](C)C2)cc1 | hMOR (mu opioid receptor) (Homo sapiens, UniProt P35372) | 11.5
COc1ccc(Oc2nc(-c3cccnc3)ncc2NC[C@@H]2CCCN2)cc1 | hMOR (mu opioid receptor) (Homo sapiens, UniProt P35372) | 2.48
COc1ccc(Oc2nc(-c3cncc(SC)c3)ncc2N2CCNCC2)cc1 | hMOR (mu opioid receptor) (Homo sapiens, UniProt P35372) | 0
COc1ccc(Oc2nc(-c3cncc(C#N)c3)ncc2NC[C@@H]2CCCN2)c(F)c1F | hMOR (mu opioid receptor) (Homo sapiens, UniProt P35372) | 16.6
COc1ccc(Oc2nc(-c3cncc(C#N)c3)ncc2NC[C@@H]2CCCN2)cc1 | hMOR (mu opioid receptor) (Homo sapiens, UniProt P35372) | 22.8
COc1ccc(Oc2nc(-c3cncc(SC)c3)ncc2NC[C@@H]2C[C@@H](F)CN2)cc1 | hMOR (mu opioid receptor) (Homo sapiens, UniProt P35372) | 7.29
COc1ccc(Oc2nc(-c3cncc(C#N)c3)ncc2N2CCNC[C@@H]2C)cc1 | hMOR (mu opioid receptor) (Homo sapiens, UniProt P35372) | 0
COc1ccc(Oc2nc(-c3cncc(SC)c3)ncc2N2CCCNCC2)cc1 | hMOR (mu opioid receptor) (Homo sapiens, UniProt P35372) | -0.404

----------
target: delta opioid receptor (Mus musculus, UniProt P32300); construct: NG108-15 cell membranes were purchased from Applied Cell Sciences (Rockville, Md.); host or cells: NG108-15 cell membranes; test: [35S]GTPγS binding assay in NG108-15 cell membranes (delta opioid functional assay), 200 nM screen; type: biochemical; details: NG108-15 cell membranes; averages if tested more than once; read-out: GTPγS δ-opioid receptor EC50
pEC50: −log10 of the molar value.
Record class 1 whenever pEC50 is at 6 or higher; record class 0 when lower.

CHEM_SMILES | LABEL
CC(C)Oc1ccc(Oc2nc(-c3cncc(C#N)c3)ncc2NC[C@@H]2CCCN2)cc1 | class 0
COc1ccc(Oc2nc(-c3cncc(C#N)c3)ncc2N2CCC(N)CC2)cc1 | class 1
COc1ccc(Oc2nc(-c3ccccc3)ncc2N2CCNCC2)cc1 | class 1
O=C(Nc1ccc(Oc2nc(-c3cncc(F)c3)ncc2NC[C@@H]2CCCN2)cc1)OCc1ccccc1 | class 1
COc1cncc(-c2ncc(NC[C@@H]3CCCN3)c(Oc3ccccc3Cl)n2)c1 | class 1
COc1c(F)cc(Oc2nc(-c3cncnc3)ncc2NC[C@@H]2CCCN2)cc1F | class 0
c1cncc(-c2ncc(N3CCNCC3)c(Oc3ccc(C4CC4)cc3)n2)c1 | class 1
COc1ccc(Oc2nc(-c3cccnc3)ncc2N2CCNC(C)(C)C2)cc1 | class 1
